B1: library; numbered along this chain (parent)
chain: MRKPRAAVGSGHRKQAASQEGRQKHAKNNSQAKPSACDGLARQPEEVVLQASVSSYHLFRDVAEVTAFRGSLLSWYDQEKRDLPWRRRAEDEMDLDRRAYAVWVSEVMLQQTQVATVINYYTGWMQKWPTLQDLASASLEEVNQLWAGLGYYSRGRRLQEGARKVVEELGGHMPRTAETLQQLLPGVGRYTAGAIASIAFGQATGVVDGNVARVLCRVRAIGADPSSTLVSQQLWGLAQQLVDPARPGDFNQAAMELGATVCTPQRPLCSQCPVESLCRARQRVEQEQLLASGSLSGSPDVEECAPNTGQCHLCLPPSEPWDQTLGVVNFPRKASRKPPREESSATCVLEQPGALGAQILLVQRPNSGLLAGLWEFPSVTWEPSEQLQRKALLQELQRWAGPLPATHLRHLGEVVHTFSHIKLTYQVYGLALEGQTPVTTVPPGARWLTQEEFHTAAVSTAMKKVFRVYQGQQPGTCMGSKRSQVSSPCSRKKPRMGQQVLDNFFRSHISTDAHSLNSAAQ

Variants of: B1
Assay: 8OG:A repair function score (normalized; synonymous = 0, nonsense = -1) (normalized log-likelihood score); higher = more repair activity (WT-like);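 further: cells sorted at 72 h after reporter transfection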
Details: with 8OG:A DNA repair reporter (GFP) in HEK-293 MUTYH KO cells
Binary classification by 8OG:A repair function score, with -0.09 as an inclusive lower bound for y; all other cases are n.

Query: Exam item: decide whether the reported 8OG:A repair function score for D322S is at least -0.09.
Result: y

Data credit: the supplement of paper PMC11908140
